This collection of values is drawn from patent US11415579B2.

Molecular target: Cdk2(N272C) (C177A) (Homo sapiens, UniProt P24941, C177A/N272C)
Construct: poly-histidine; made in house; host or cells: E. coli
Experiment: Kinetic thiol consumption assay with Cdk2 mutant N272C
Type: binding
Conditions: Protein: Cdk2; cysteine position N272C; additional mutation C177A; in h^-1
Experimental: To wells containing 150 μL thiol (Cdk2 or model thiol) (5 μM) in degassed phosphate buffer (pH 8) was added immobilized TCEP beads (2% v/v). After incubation of the fluorescence plates for 1 hour at room temperature, fluorescence measurements (excitation/emission of 380/470 nm) were taken on a PerkinElmer EnVision multilabel plate reader and processed with EnVision Workstation version 1.12. Fluorescence measurements were normalized against a DMSO/thiol only control and plotted against time. […]

COMPOUND	Rate constant with Cdk2 N272C
C=CC(=O)N(Cc1ccc2c(c1)CCO2)C1CCCC1	0.2113
C=CC(=O)NCCc1c(-c2ccccn2)[nH]c2ccccc12	0.001714
C=CC(=O)N1C(C(=O)c2ccccc2)C1c1ccccc1 (stereo not shown)	0.006086
C=CC(=O)Nc1ccc(-c2ncccn2)cc1	0.02636

====

Target: Cdk2(T182C) (C177A) (Homo sapiens, UniProt P24941, C177A/T182C)
Construct: poly-histidine; made in house; host or cells: E. coli
Test: Kinetic thiol consumption assay with Cdk2 mutant T182C
Type: binding
Details: Protein: Cdk2; cysteine position T182C; additional mutation C177A; in h^-1
Experimental: To wells containing 150 μL thiol (Cdk2 or model thiol) (5 μM) in degassed phosphate buffer (pH 8) was added immobilized TCEP beads (2% v/v). After incubation of the fluorescence plates for 1 hour at room temperature, fluorescence measurements (excitation/emission of 380/470 nm) were taken on a PerkinElmer EnVision multilabel plate reader and processed with EnVision Workstation version 1.12. Fluorescence measurements were normalized against a DMSO/thiol only control and plotted against time. […]

COMPOUND	Rate constant with Cdk2 T182C
C=CC(=O)NC1CC(NC(=O)C2CCC2)C1 (stereo not drawn) [CA-202]	0.01796
C=CC(=O)NCCc1c(-c2ccccn2)[nH]c2ccccc12 [EL-1083]	0.00998
C=CC(=O)Nc1cccc(C(=O)c2ccccc2)c1 [CA-218]	0.1279
C=CC(=O)N(Cc1ccco1)C12CC3CC(CC(C3)C1)C2 [CA-157]	0.08469
C=CC(=O)N1CCN(Cc2ccc(Cl)cc2)CC1 [EL-1183]	0.01481
C=CC(=O)Nc1ccc(-c2ncccn2)cc1 [CA-037]	0.1865
C=CC(=O)N1CCCC(N2C(=O)CC3(CCCC3)C2=O)C1 (stereo not drawn) [CA-236]	0.009576
C=CC(=O)N1CCC2(CCCN(Cc3ccccc3)C2)C1 (stereo not drawn) [CA-141]	0.009235
C=CC(=O)N(C)C1CC(OCC)C12CCC2 (stereo not drawn) [CA-048]	0.05001
C=CC(=O)N1CCN(C(=O)OC(C)(C)C)CC1 [CA-029]	0.03726
C=CC(=O)Nc1cccc(-c2cc3ccccc3[nH]2)c1 [EL-1098]	0.02907
C=CC(=O)N1CC2CCCCCCC21 (stereo not drawn) [CA-098]	0.1221
C=CC(=O)N1CCCc2cc(C(=O)OC)ccc21 [EL-1071]	0.3945
C=CC(=O)N1CCC(c2nc3ccccc3[nH]2)CC1 [EL-1152]	0.02276
C=CC(=O)Nc1ccc(C(=O)c2ccccc2)cc1 [CA-219]	0.6559
C=CC(=O)N1CC(CCN2CCCC2=O)c2ccccc21 (stereo not drawn) [CA-089]	0.784
O=C(c1ccccc1)[C@@H]1O[C@H]1c1ccccc1 [EN006]	0.07618
C=CC(=O)NC1C2C3CCC(C3)C12 (stereo not drawn) [CA-097]	0.01424
C=CC(=O)N(c1cccc2ncccc12)C1CCC1 [CA-032/228]	0.2422
CC1CN(C(=O)CCl)CC(C)O1 (stereo not drawn) [EN012]	0.08536
C=CC(=O)NCc1ccc(F)cc1 [BN-62]	0.001045
